- TEST_METHOD_NOTES: TOR pathway GLN3 branch reporter MEP2-GFP changes – S. cerevisiae, multiplex flow cytometry, primary screen (AID 1867);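 further: median GFP channel fluorescence of barcode-gated MEP2-GFP cells measured by flow cytometry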
- CONDITION_INFO: S. cerevisiae MEP2-GFP strain, 3 h, at 10 µM, stronger effect = higher value, 100% means same as DMSO wells
Records with an inconclusive call do not appear. Calls of active or inactive are those of the source.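 How the source made its calls: active means GFP response, as percent of the DMSO control, above the screen-wide mean plus 3 SD, about 139; inconclusive means no response measured because the compound's own fluorescence interfered; inactive means the rest.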
MEASURED_ATTRIBUTE: GFP response vs DMSO

Examples with their reported GFP response vs DMSO follow.
COMPOUND | MEASURED_VALUE
CC1(C)CC(CC(=O)O)(c2ccc(Cl)cc2)CCO1 (stereo unspecified) | 126% (inactive)
C/C(=N\NC(=O)C1(C)CC1(Br)Br)c1ccc([N+](=O)[O-])cc1 (stereo unspecified) | 99.3% (inactive)
CN1C2CCC1CC(OC(c1ccccc1)c1ccccc1)C2 (stereo unspecified) | 96.2% (inactive)
C[C@@H]1C[C@H](Nc2ccccc2)c2ccccc2N1C(=O)c1cccnc1 | 103% (inactive)
O=C(c1ccc(Cl)cc1)C1CCCN(C(=O)/C=C/c2ccccn2)C1 (stereo unspecified) | 102% (inactive)
COC(=O)c1ccc(NC(=O)C23CCC(C)(C(=O)O2)C3(C)C)cc1 (stereo unspecified) | 104% (inactive)

// field: GFP response vs DMSO; key: "CN1/C(=C\C=Nc2ccccc2)C(C)(C)c2ccccc21" ; value = 102% (inactive)

// field: GFP response vs DMSO; key: "O=C(NCc1ccc2c(c1)OCO2)c1ccc2c(c1)OCCO2" ; value = 105% (inactive)

// field: GFP response vs DMSO; key: "O=C(O)c1cc2cc(Cl)cc(Cl)c2oc1=O" ; value = 129% (inactive)

// field: GFP response vs DMSO; key: O=C(c1cccc2ccccc12)C1CCCN(C(=O)CCN2CCCO2)C1 (stereo unspecified) ; value = 98.3% (inactive)

// field: GFP response vs DMSO; key: "COc1cccc(-n2cc(CNCc3c(C(=O)N(C)C)nc4ccc(Cl)cn34)cn2)c1" ; value = 106% (inactive)

---

- TARGET_OR_TEST_SYSTEM: AP-2 complex subunit beta (Homo sapiens) (UniProt P63010)
- Sequence (P63010 whole entry, looked up, one chain of several): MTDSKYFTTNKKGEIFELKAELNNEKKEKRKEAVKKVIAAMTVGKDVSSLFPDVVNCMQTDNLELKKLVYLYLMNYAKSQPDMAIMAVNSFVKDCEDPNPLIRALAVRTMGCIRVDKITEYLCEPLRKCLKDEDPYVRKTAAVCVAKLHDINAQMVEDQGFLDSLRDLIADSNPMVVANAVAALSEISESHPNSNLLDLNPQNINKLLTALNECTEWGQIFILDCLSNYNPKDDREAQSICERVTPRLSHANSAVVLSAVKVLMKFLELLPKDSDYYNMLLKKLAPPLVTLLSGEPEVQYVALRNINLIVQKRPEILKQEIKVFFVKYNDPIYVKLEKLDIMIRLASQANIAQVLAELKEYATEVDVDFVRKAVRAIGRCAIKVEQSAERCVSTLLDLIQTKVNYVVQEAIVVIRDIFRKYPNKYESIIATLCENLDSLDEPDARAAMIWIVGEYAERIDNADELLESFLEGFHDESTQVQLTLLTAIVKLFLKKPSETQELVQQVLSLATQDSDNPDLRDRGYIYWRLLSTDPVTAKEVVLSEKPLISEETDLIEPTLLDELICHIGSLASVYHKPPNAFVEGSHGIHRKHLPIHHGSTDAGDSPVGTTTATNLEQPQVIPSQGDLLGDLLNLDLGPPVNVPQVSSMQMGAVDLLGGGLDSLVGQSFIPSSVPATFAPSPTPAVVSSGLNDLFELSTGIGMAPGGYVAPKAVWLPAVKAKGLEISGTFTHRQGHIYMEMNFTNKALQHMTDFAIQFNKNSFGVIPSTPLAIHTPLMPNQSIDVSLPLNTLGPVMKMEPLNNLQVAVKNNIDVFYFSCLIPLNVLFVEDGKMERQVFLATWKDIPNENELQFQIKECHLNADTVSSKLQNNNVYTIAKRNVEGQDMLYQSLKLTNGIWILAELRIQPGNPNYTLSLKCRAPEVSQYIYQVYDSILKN
- TEST_METHOD_NOTES: beta-arrestin/AP2 interaction blockers – biochemical, validation set, GST-AP2 beads, flow cytometry, pilot screen (AID 504541);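 further: AP2 carries R879A mutation and is captured from E. coli lysate; bead-bound FITC arrestin peptide fluorescence measuring arrestin peptide binding to AP2; 0% = DMSO wells and 100% = excess unlabeled arrestin peptide control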
- CONDITION_INFO: FITC arrestin peptide, at 10 µM, stronger effect = higher value, AP2 beta2 appendage fragment, R879A mutant
Entries and their inhibition
Lab book: enter the figure in %, no units written.

Examples with their reported inhibition follow.
COMPOUND | inhibition (%)
O=c1cc(CN2CCN(c3cccc(Cl)c3)CC2)c2cc(O)c(-c3ccccc3)cc2o1 | -0.51
COc1ccc2c(c1)[N+](C)(C)C(C)(C)C=C2C | -11.1
Nc1cc(-c2ccncc2)c[nH]c1=O | -8.58
NS(=O)(=O)c1ccc(CNC(=O)c2cc(-c3ccccc3)nc3ccccc23)cc1 | 16
COc1ccc(C2C3=C(CC(C)(C)CC3=O)N(C)C3=C2C(=O)CC(C)(C)C3)cc1 | 2.92
O=C1c2ccccc2C2(c3ccccc3)NCCN12 (stereo unspecified) | 6.52
CC(C)(Sc1cc(C(C)(C)C)c(O)c(C(C)(C)C)c1)Sc1cc(C(C)(C)C)c(O)c(C(C)(C)C)c1 | 10.6
Cc1nc(NCc2ccco2)c(C#N)c2c1COC(C)(C)C2 | -2

// field: inhibition; key: "CC(=O)c1ccc(CCCCCCCCCC(=O)O)s1" ; value = 26.2

// field: inhibition; key: "COc1ccc(/C=C2\CC/C(=C\c3ccc(OC)c(OC)c3)C2=O)cc1OC" ; value = 0.71

// field: inhibition; key: COc1ccc(NC(=O)N2CCCCC2c2cccnc2)cc1 (stereo unspecified) ; value = 0.21

// field: inhibition; key: COc1ccc(C2c3c(n[nH]c3C)CC(C)(O)C2C(C)=O)cc1OC (stereo unspecified) ; value = -0.31

// field: inhibition; key: "O=C(/C=C/c1ccccc1)NC(=O)c1ccccc1O" ; value = 15.2

// field: inhibition; key: COc1ccc(C2C3CCCCC3(O)CCN2C(=O)c2cccs2)cc1 (stereo unspecified) ; value = -1.09

// field: inhibition; key: "Fc1ccc(-c2cc(-c3ccccc3)nc(-n3cccn3)n2)cc1" ; value = 34.7

// field: inhibition; key: "CC(=O)Nc1c(I)c(NC(C)=O)c(I)c(C(=O)O)c1I" ; value = 2.48
